# System: SNB-19 CNS
# run-description: NCI tumour cell line growth inhibition, 48 h
measurement-label: TGI

- Cn1c(=O)c2[nH]c(SCCN3CCOCC3)nc2n(C)c1=S: > 100 µM
- CCOc1ccc(/C(C=O)=C(\Cl)c2ccc(OC)cc2)cc1: > 100 µM
- CNNC(=N\S(=O)(=O)c1cc(C)c(Cl)cc1SCc1ccccc1)/N=C/c1ccc([N+](=O)[O-])s1: > 100 µM
- Cc1ccc(-n2cc(-c3ccc(Cl)cc3)c3c(NN)ncnc32)cc1: 40.9 µM
- NC(=O)c1cc(N(CCO)CCO)c([N+](=O)[O-])cc1[N+](=O)[O-]: > 100 µM
- CCOC(=O)c1cc2c(OCc3ccccc3)c(OC)cc3c2c(n1)N(c1ccc(OC)cc1)C(C)C3 (stereo not given): > 50 µM
- COC(=O)CC(C(C(=O)OCc1ccccc1)C(C)O)N1C(=O)OC(c2ccccc2)C1c1ccccc1 (stereo not given): > 100 µM
- CC12CCCCC1=[N+]([O-])C(C)(C)N2O (stereo not given): > 100 µM
- CC[C@@]1(OC(=O)CN)C(=O)OCc2c1cc1n(c2=O)Cc2c-1nc1cc3c(cc1c2CCl)OCO3: 13.7 µM
- Cc1c(OCc2ccccc2)c(=O)ccn1CCc1c[nH]c2ccccc12: > 100 µM
